Target: kinase domain of human recombinant JAK1 (Homo sapiens)
Construct: using the kinase domains of human recombinant JAK1, JAK2, JAK3 and TYK2
Sequence (P23458 875-1153 limits assumed): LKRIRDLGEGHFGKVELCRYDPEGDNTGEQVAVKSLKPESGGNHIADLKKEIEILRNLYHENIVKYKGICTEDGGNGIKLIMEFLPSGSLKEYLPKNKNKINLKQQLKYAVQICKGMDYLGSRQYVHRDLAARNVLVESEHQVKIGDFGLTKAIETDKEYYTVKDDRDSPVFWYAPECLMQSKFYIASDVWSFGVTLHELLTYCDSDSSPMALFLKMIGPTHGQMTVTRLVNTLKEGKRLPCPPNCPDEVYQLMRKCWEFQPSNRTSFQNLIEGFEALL
Assay: JAK enzyme biochemical assay (Eurofins CEREP), JAK1
Conditions: ATP at Km, 100 nM substrate peptide, 60 minutes, duplicate
measured.metric: IC50 (nM)
Only the number, expressed in nM, is required.

Form field: reported IC50 of [2H]C1([2H])C([C@@H](CC(N)=O)n2cc(-c3ncnc4[nH]ccc34)cn2)C([2H])([2H])C([2H])([2H])C1([2H])[2H]
63.9

====

Biological target: kinase domain of human recombinant TYK2 (Homo sapiens)
Construct: using the kinase domains of human recombinant JAK1, JAK2, JAK3 and TYK2
Sequence (P29597 897-1176 limits assumed): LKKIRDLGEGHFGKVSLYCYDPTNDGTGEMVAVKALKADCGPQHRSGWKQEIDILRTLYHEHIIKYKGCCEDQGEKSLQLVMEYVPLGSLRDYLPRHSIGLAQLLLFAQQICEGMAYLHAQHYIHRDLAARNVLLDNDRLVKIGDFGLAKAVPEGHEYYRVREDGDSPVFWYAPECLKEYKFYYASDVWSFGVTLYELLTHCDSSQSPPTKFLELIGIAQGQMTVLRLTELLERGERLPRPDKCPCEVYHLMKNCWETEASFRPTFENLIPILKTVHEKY
Test: JAK enzyme biochemical assay (Eurofins CEREP), TYK2
Settings: ATP at Km, 100 nM substrate peptide, 60 minutes, duplicate
measured.metric: IC50 (nM)
Only the number, expressed in nM, is required.

Notebook: pull reported IC50 for kinase domain of human recombinant TYK2 (Homo sapiens), entry [2H]C1([2H])C([C@@H](CC(N)=O)n2cc(-c3ncnc4[nH]ccc34)cn2)C([2H])([2H])C([2H])([2H])C1([2H])[2H] [Compound 10]
368

Origin of the recorded values: patent US11919907B2
